Ref: paper PMC9558907

# STUDY_SYSTEM: human CB2 (Homo sapiens, UniProt P34972)
# Sequence (P34972 whole entry): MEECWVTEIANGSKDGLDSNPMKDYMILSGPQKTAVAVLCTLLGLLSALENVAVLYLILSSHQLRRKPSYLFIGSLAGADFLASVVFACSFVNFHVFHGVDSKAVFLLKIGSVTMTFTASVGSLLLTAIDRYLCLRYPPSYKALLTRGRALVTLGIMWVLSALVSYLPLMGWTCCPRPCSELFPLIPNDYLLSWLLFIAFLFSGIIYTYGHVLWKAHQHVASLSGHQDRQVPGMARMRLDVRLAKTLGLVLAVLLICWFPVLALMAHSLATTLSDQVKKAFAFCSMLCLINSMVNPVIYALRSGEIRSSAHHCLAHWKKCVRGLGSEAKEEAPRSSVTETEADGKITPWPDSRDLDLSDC
# ASSAY_DETAILS: competitive radioligand binding assay, displacement of [3H]CP55,940, HEK cell membranes
# Set-up: expressed in transfected cells; host or cells: HEK293 cells, P2 membrane preparation
# MEASUREMENT_PARAMETERS: hCB2 Ki, [3H]CP55,940 1 nM, value in brackets after pKi
Assign labels as follows, please: Condition met for Ki below 2 nM; Condition not met for Ki equal to or exceeding 2 nM.

Q) Does `CC(C)(C)[C@H](NC(=O)c1nn(CCCCC#N)c2ccccc12)C(N)=O` have Ki strictly under 2 nM?
A) Condition not met

Q) Same again, this time with `CC(C)(C)[C@H](NC(=O)c1nn(CCCCF)c2ccccc12)C(N)=O`
A) Condition met

Q) Same again, this time with `NC(=O)[C@H](Cc1ccccc1)NC(=O)c1cn(CCCCF)c2ccccc12`
A) Condition not met

Q) Same again, this time with `COC(=O)[C@H](Cc1ccccc1)NC(=O)c1cn(CCCCF)c2ccccc12`
A) Condition not met

Q) Same again, this time with `COC(=O)[C@H](Cc1ccccc1)NC(=O)c1nn(CCCCF)c2ccccc12`
A) Condition met

Q) Same again, this time with `COC(=O)[C@@H](NC(=O)c1cn(CCCCF)c2ncccc12)C(C)(C)C`
A) Condition not met

Q) Same again, this time with `CC(C)[C@H](NC(=O)c1cn(CCCCC#N)c2ccccc12)C(N)=O`
A) Condition not met

Q) Same again, this time with `CC(C)[C@H](NC(=O)c1nn(CCCCF)c2ccccc12)C(N)=O`
A) Condition not met
